- Target Or Test System: Bcl-xL, Q07817
- Sequence (Q07817 1-209): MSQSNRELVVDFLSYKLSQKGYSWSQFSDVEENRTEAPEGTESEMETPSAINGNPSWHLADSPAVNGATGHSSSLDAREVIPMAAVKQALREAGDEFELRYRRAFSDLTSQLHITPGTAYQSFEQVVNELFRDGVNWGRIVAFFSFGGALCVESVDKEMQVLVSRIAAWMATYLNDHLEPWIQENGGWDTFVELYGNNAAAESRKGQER
- Measurement Notes: peptide SPOT array, c-Myc-tagged receptor at 1 uM or 100 nM, anti-c-Myc-Cy3
Reported SPOT signal as a fraction of Bim BH3's signal on the same receptor and array values follow for various binders
Endpoint: SPOT signal as a fraction of Bim BH3's signal on the same receptor and array

1) KLALEQRCRELRARGRRLEETLPRRI [KIF19] = 1.22
2) GLTWDPVGKYDASQADDRSLKVWRTL [HIRA] = 0.17
3) TAAAAYRGAHDRGRGRTVYNTFRAAA [XXXX] = 2.54
4) VFERCELARTDKRLGMDGYRGISLAN [LYZ] = 0.22
5) RDASKILVDALQKFADDMYSLYGGNA [ATP6AP2] = 0.03
6) GMTSEQVAQVLRNCGNSVRMLVARDP [INADL] = 0.18
7) TRRSMVFARHLREVGDEFRSRHLNST [POFUT2] = 1.91
